Molecular target: Eukaryotic translation initiation factor 4E (Mus musculus)
Sequence (P63073 whole entry): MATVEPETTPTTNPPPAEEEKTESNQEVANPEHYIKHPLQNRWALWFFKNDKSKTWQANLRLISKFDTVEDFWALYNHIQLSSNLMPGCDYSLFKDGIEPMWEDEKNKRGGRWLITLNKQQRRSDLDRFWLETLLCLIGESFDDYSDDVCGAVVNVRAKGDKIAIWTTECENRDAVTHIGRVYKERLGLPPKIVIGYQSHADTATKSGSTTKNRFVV
Assay: blockers of eIF4G binding by eIF4E – biochemical, TR-FRET, dose response (AID 855);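 also: potency for disrupting eIF4E binding to eIF4GI seen as loss of FRET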
Type: functional
Calls of active or inactive are those of the source.
Outcomes: TRUE for active, FALSE for inactive

given smiles	class label
O=C(N/N=C/c1ccc([N+](=O)[O-])o1)c1cc2c(ccc3ccccc32)o1	FALSE
CN1CCN(CCCNC(=O)c2ccc(/C=C3\Sc4ccccc4N(Cc4ccc(F)cc4)C3=O)cc2)CC1	FALSE
Nc1ccc(N)c(C(=O)O)c1	TRUE
CCNc1nc(NC(C)C)nc(Oc2ccc(OCCOc3ccccc3)nn2)n1	FALSE

* * *

Biological target: Paired box protein Pax-8 (Homo sapiens, UniProt Q06710)
Sequence (Q06710 whole entry): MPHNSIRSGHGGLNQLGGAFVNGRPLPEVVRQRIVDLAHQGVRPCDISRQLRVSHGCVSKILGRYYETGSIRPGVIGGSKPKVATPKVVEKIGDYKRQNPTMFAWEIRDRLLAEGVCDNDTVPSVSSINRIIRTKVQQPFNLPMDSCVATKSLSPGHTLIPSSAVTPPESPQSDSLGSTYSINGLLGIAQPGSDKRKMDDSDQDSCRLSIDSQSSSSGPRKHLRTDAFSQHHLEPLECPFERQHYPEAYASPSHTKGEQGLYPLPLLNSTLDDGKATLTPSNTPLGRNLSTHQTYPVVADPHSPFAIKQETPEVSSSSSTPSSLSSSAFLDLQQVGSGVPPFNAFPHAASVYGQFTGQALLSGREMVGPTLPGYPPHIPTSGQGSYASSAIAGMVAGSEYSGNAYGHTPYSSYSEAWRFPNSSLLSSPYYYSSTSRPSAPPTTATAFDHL
Assay: PAX8 transcriptional activity inhibition in RMG-I – RMG-I cells, luciferase, cherry-pick, dose response (AID 687027);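 also: luciferase reporter driven by Pax8 target thyroperoxidase promoter measured by SteadyGlo luminescence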
Assay type: functional, cell-based
Active and inactive are the calls of the source.
The reader will find reported AC50 values listed item by item below.

molecule	measured on	AC50
COc1ccc(S(=O)(=O)Nc2ccc3c(c2)CC(=O)N([C@@H](C)CO)C[C@@H](C)[C@H](CN(C)Cc2ccc(C(F)(F)F)cc2)O3)cc1	Paired box protein Pax-8 (Homo sapiens, UniProt Q06710)	6.77 µM (active)
COc1cc(-c2cnc3c(NC=O)cc(-c4cccc(NC(C)=O)c4)cn23)cc(OC)c1OC	Paired box protein Pax-8 (Homo sapiens, UniProt Q06710)	2.88 µM (active)
C=CC[C@H](CC(=O)N(CCO)Cc1ccccc1)C(=O)N[C@@H](COC(=O)[C@H](CC=C)CC(=O)OC(C)(C)C)Cc1c[nH]c2ccccc12	Paired box protein Pax-8 (Homo sapiens, UniProt Q06710)	15.9 µM (active)
CCCC(=O)N1CCN(c2ccc(NC(=O)c3ccc([N+](=O)[O-])o3)cc2)CC1	Paired box protein Pax-8 (Homo sapiens, UniProt Q06710)	5.17 µM (active)
COc1cccc(-c2ccc3c(c2)[C@H]2[C@H](CCN2C(=O)c2ccccc2F)[C@H](CO)N3C)c1	Paired box protein Pax-8 (Homo sapiens, UniProt Q06710)	8.72 µM (active)
C[C@@H]1CCCCO[C@@H](CN(C)Cc2ccc(C(F)(F)F)cc2)[C@H](C)CN([C@H](C)CO)C(=O)c2cc(NS(=O)(=O)c3ccc(Cl)cc3)ccc2O1	Paired box protein Pax-8 (Homo sapiens, UniProt Q06710)	8.48 µM (active)
CC1OC(OC2C=C3CCC4C(CCC5(C)C(c6ccc(=O)oc6)CCC45O)C3(C)CC2)C(O)C(OC2OC(CO)C(O)C(O)C2O)C1O (configuration not stated)	Paired box protein Pax-8 (Homo sapiens, UniProt Q06710)	< 0.26 µM (active)

* * *

The reader will find reported IC50 values listed item by item below.
Biological target: Fatty acid synthase (Homo sapiens)
Sequence (P49327 whole entry): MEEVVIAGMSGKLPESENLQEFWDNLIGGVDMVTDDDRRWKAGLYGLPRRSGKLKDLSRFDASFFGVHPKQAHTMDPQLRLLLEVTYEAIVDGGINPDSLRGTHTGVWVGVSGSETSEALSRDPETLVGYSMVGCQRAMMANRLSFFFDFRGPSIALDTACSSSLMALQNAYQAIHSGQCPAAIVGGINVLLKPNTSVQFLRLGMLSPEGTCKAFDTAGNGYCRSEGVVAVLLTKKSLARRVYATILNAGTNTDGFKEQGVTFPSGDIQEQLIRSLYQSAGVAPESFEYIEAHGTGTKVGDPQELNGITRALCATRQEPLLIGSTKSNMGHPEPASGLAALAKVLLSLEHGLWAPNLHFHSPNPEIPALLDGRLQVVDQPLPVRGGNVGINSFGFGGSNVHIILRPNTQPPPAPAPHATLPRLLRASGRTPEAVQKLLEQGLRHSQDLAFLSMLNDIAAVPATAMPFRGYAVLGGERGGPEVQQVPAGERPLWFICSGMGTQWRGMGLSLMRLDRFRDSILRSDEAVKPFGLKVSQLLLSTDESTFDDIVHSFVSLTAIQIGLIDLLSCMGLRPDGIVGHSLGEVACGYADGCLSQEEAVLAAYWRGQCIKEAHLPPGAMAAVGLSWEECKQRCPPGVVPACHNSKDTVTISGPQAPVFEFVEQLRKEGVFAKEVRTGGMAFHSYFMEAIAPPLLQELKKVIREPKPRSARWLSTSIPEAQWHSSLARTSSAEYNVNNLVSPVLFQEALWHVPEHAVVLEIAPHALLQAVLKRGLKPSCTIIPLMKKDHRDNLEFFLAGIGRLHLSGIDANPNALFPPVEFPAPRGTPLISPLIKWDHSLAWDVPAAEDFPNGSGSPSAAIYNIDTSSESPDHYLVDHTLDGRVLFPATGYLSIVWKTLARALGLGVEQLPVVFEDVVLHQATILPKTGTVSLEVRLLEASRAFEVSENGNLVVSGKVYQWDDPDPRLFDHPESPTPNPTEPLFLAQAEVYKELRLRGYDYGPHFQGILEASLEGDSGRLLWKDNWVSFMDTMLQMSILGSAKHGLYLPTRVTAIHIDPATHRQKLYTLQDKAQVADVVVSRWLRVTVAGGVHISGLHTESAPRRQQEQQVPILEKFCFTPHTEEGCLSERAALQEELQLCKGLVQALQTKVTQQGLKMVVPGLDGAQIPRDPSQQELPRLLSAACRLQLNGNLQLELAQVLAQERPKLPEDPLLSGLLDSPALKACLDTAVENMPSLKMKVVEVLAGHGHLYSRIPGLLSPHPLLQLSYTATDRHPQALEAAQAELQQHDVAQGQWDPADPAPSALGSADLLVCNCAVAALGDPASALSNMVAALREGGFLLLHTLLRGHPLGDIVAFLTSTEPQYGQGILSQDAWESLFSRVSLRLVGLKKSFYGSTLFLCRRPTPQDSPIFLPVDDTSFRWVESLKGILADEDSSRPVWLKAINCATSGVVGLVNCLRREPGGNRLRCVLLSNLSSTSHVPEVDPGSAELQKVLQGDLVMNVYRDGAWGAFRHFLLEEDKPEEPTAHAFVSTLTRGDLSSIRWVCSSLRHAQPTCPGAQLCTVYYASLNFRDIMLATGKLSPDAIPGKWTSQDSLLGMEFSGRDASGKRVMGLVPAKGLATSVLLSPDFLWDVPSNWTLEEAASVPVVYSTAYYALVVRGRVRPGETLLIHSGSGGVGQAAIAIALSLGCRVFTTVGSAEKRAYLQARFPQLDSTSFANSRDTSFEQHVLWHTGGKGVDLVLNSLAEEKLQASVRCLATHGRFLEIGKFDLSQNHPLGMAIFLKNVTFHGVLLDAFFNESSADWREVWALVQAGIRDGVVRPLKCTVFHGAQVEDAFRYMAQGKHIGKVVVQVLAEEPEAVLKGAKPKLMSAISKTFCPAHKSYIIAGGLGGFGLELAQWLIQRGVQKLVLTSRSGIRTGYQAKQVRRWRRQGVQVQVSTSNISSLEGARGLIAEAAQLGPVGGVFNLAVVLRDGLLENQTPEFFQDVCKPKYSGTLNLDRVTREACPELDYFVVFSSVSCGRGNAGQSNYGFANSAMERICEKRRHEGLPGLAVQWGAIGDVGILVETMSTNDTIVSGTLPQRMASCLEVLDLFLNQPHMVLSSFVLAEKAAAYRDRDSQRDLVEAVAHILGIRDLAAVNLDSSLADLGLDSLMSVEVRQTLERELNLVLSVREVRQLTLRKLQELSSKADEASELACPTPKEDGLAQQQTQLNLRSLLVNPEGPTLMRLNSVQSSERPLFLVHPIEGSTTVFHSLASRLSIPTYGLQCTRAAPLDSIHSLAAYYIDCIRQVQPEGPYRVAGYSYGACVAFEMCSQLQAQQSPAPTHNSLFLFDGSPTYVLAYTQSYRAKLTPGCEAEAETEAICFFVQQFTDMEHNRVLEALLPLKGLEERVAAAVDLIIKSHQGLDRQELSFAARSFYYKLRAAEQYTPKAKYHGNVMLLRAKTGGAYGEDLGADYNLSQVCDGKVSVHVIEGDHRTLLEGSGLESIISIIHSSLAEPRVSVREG
Assay: inhibition of human FAS-TE enzyme activity – biochemical, endpoint fluorescence intensity, uHTS hits, dose response (AID 624327);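 also: fluorescence from hydrolysis of an O-methyl fluorescein acyl ester substrate by the enzyme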
Type: functional
Active and inactive are the calls of the source.
measure: IC50

given smiles	experimental value
COc1ccc(/C=C(\NC(=O)c2ccc([N+](=O)[O-])cc2)C(=O)N2CCOCC2)cc1	1340 nM (active)
CCN(C(=O)COC(=O)c1cc([N+](=O)[O-])ccc1N1CCOCC1)C1CCCCC1	1130 nM (active)
O=C(c1cc2cc([N+](=O)[O-])ccc2oc1=O)N1CCN(C2CCCCC2)CC1	13900 nM (active)

// data source = ChEMBL document CHEMBL1201862
